minimal effective concentration for assorted compounds
Tested on: recombinant guanylate cyclase reporter cell line
TEST SUMMARY: Action on recombinant guanylate cyclase reporter cell line (MEC)
Type: cell-based
CONDITIONS USED: in some cases mean values obtained from individual determinations
Counter-ions that a name gives are not always drawn.
PROPERTY LABEL: minimal effective concentration (µM)

                                    compound                   property_label  unit_abbreviation  measured_value
 0  Cc1nc2c(OCc3c(F)cccc3F)cccn2c1C(=O)NC(CO)CCCC(F)(F)F (single isomer, unassigned; ent-8) [Example 123]  minimal effective concentration                 µM            0.03
 1  Cc1nc2c(OCC3CCCCC3)cccn2c1C(=O)N[C@@H]1CCC[C@@H]1O (relative stereo) [Example 81]  minimal effective concentration                 µM            0.65
 2  Cc1nc2c(OCc3c(F)cccc3F)cccn2c1C(=O)NCC(O)C(F)(F)F (racemic) [Example 106, trifluoroacetate]  minimal effective concentration                 µM             0.3
 3  Cc1nc2c(OCc3c(F)cccc3F)cccn2c1C(=O)N[C@@H](CO)CCCO [Example 130]  minimal effective concentration                 µM               1
 4  Cc1nc2c(OCc3c(F)cccc3F)cccn2c1C(=O)NCC(O)C(F)(F)F (single isomer, unassigned; ent-8) [Example 109]  minimal effective concentration                 µM             0.1
 5  Cc1nc2c(OCc3c(F)cccc3F)cccn2c1C(=O)NC(CO)C(F)(F)F (racemic) [Example 110]  minimal effective concentration                 µM             0.3
 6  Cc1nc2c(OCc3c(F)cccc3F)cccn2c1C(=O)N[C@@H]1CCC[C@H]1O [Example 36]  minimal effective concentration                 µM             0.1
 7  CCCC[C@H](CO)NC(=O)c1c(C)nc2c(OCc3c(F)cccc3F)cc(N3CCOCC3)cn12 [Example 63]  minimal effective concentration                 µM               3
 8  Cc1nc2c(OCC3CCCCC3)cccn2c1C(=O)NC(C)CO (stereo not shown) [Example 84]  minimal effective concentration                 µM             0.3
 9  Cc1nc2c(OCc3c(F)cccc3F)cccn2c1C(=O)NC(C)C(O)C(F)(F)F (single isomer, unassigned) [Example 144]  minimal effective concentration                 µM             0.3
10  Cc1cc(OCCC(C(F)(F)F)C(F)(F)F)c2nc(C)c(C(=O)NCC(O)c3ccc(Cl)cc3)n2c1 (racemic) [Example 175]  minimal effective concentration                 µM               3
11  CCCC[C@H](CO)NC(=O)c1c(C)nc2c(OCc3c(F)cccc3F)cc(C3CC3)cn12 [Example 61]  minimal effective concentration                 µM               1
12  Cc1nc2c(OCc3c(F)cccc3F)cccn2c1C(=O)N[C@@H](CO)CC[C@@H](O)C(F)(F)F [Example 135]  minimal effective concentration                 µM             0.1
13  Cc1nc2c(OCc3c(F)cccc3F)cccn2c1C(=O)NCCCCO [Example 23]  minimal effective concentration                 µM             0.3
14  CCCC[C@@H](NC(=O)c1c(C)nc2c(OCc3c(F)cccc3F)cccn12)C(O)C(F)(F)F (stereo partly shown) [Example 142]  minimal effective concentration                 µM             0.1
15  Cc1nc2c(OCc3c(F)cccc3F)cccn2c1C(=O)NC(CCC(F)(F)F)C(C)(C)O (single isomer, unassigned; ent-8) [Example 155]  minimal effective concentration                 µM             0.1
